# TGT: recombinant human transglutaminase 2 (Homo sapiens, UniProt P21980)
# Sequence (P21980 whole entry): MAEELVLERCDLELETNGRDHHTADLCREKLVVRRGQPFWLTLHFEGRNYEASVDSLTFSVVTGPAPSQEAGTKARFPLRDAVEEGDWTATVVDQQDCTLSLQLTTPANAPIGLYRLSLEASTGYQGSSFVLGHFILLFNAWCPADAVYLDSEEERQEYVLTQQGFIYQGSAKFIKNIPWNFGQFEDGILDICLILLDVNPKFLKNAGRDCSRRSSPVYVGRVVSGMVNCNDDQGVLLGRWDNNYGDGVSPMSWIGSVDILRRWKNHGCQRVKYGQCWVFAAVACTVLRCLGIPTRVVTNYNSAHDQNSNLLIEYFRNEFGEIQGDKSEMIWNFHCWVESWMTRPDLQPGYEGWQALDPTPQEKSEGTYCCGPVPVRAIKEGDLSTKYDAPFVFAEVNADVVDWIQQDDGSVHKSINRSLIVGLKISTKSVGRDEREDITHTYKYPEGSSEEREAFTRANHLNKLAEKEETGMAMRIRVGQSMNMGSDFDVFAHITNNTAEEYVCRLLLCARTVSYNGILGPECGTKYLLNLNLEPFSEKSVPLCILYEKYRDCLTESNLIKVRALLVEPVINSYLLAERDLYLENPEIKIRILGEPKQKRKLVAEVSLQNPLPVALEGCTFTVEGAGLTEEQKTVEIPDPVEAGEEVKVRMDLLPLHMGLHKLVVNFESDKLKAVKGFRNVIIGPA
# ASSAY EXPLANATION: Transglutaminase assay: incorporation of dansylcadaverine into dimethylcasein (DCC-assay)
# Type: biochemical
# CONDITION LABEL: recombinant human TG2 10 nM, dansylcadaverine/dimethylcasein; read-out: IC50 TG2
PROPERTY: IC50

Guide cases for IC50, answers given:
CCNC(=O)C(=O)CC[C@H](NC(=O)c1coc2ccccc12)C(=O)Nc1cccn(CC(=O)N[C@H]2C[C@H]3C[C@@H]([C@@H]2C)C3(C)C)c1=O = 150 to 600 nM
CCNC(=O)C(=O)CC[C@H](NC(=O)c1sc(Br)cc1C)C(=O)Nc1cccn(CC(=O)NC2C3CC4CC(C3)CC2C4)c1=O (stereo partly drawn) = < 150 nM
CCNC(=O)C(=O)CC[C@H](NC(=O)c1cncn1C)C(=O)Nc1cccn(CC(=O)NC23CC4CC(C2)CC(C(F)(F)F)(C4)C3)c1=O = 150 to 600 nM
CCNC(=O)C(=O)CC[C@H](NC(=O)c1coc(S(N)(=O)=O)c1)C(=O)Nc1cccn(CC(=O)NC2C3CC4CC2CC(NC(C)=O)(C4)C3)c1=O (stereo partly drawn) = 600 to 3500 nM

What measured IC50 goes with CCNC(=O)C(=O)CC[C@H](NC(=O)c1cc(Cl)c(Cl)s1)C(=O)Nc1cccn(CC(=O)NC2C3CC4CC(C3)CC2C4)c1=O (stereo partly drawn) ? < 150 nM

Entry to check: CCNC(=O)C(=O)CC[C@H](NC(=O)c1ncn(C)n1)C(=O)Nc1cccn(CC(=O)N[C@@H]2C[C@@H]3C[C@H]([C@H]2C)C3(C)C)c1=O 150 to 600 nM

----------
# ASSAY EXPLANATION: Caco-2 permeability assay (CacoReady kit)
# Assay type: in vitro ADME
# CONDITION LABEL: human
PROPERTY: Papp

CCNC(=O)C(=O)CC[C@H](NC(=O)c1coc2ccccc12)C(=O)Nc1cccn(CC(=O)N[C@H]2C[C@H]3C[C@@H]([C@@H]2C)C3(C)C)c1=O [Compound I-77] = 1 to 10 ×10⁻⁶ cm/s
CCNC(=O)C(=O)CC[C@H](NC(=O)c1nonc1N)C(=O)Nc1cccn(CC(=O)NC23CC(C2)C3)c1=O [Compound I-108] = < 1 ×10⁻⁶ cm/s
CCNC(=O)C(=O)CC[C@H](NC(=O)c1c[nH]cc1C(C)(C)C)C(=O)Nc1cccn(CCC23CC4CC(CC(C4)C2)C3)c1=O [Compound I-85] = 1 to 10 ×10⁻⁶ cm/s
CCNC(=O)C(=O)CC[C@H](NC(=O)c1c(C)ncn1C)C(=O)Nc1cccn(CC(=O)NC23CC4CC(C)(CC(C)(C4)C2)C3)c1=O [Compound I-21] = < 1 ×10⁻⁶ cm/s
CCNC(=O)C(=O)CC[C@H](NC(=O)c1ccc2occc2c1)C(=O)Nc1cccn(CC(=O)NC2C3CC4CC2CC(NC(C)=O)(C4)C3)c1=O (some centres unmarked) [Compound I-113] = < 1 ×10⁻⁶ cm/s

What measured Papp goes with CCC(CC)CNC(=O)Cn1cccc(NC(=O)[C@H](CCC(=O)C(=O)NC)NC(=O)c2cncn2C)c1=O [Ref. 1, reference compound] ? < 1 ×10⁻⁶ cm/s

Entry to check: CCNC(=O)C(=O)CC[C@H](NC(=O)c1csc2ccccc12)C(=O)Nc1cccn(CC(=O)NC23CCCC4CC(CCC42)C3)c1=O (some centres unmarked) [Compound I-78] 1 to 10 ×10⁻⁶ cm/s

Entry to check: CCNC(=O)C(=O)CC[C@H](NC(=O)c1cncc([N+](=O)[O-])c1)C(=O)Nc1cccn(CC(=O)NCC23CC4CC(CC(C4)C2)C3)c1=O [Compound I-65] 1 to 10 ×10⁻⁶ cm/s
